# System: SNB-75 CNS
# Protocol: NCI tumour cell line growth inhibition, 48 h
Experimental Endpoint: TGI

// Input: O=[N+]([O-])C1C2C=CC(C2)[C@H]1c1ccc(Cl)cc1Cl (some centres not stated) . Output its TGI only. > 100 µM

// Input: N#CCCC1(CCC#N)CCCCCCC(CCC#N)(CCC#N)C(O)C1O (configuration not stated) . Output its TGI only. > 100 µM

// Input: `COC(=O)[C@H](Cc1ccccc1)NC(=O)c1csc([C@@H](C[C@H](C(C)C)N(C)C(=O)[C@@H](NC(=O)[C@H]2CCCN2C)C2CC2)OC(C)=O)n1` . Output its TGI only. > 33.3 µM

// Input: `CCCn1cnc2c(SCc3ccccc3)nc(N)nc21` . Output its TGI only. > 100 µM

// Input: `Cc1cc(S(=O)(=O)O)c(NC(=O)c2oc3cc(O)ccc3c(=O)c2C)cc1Cl` . Output its TGI only. > 100 µM

// Input: `CC(C)(C)c1ccc(-c2nnc(-c3cc(C#N)cc(-c4nnc(-c5ccc(C(C)(C)C)cc5)o4)c3)o2)cc1` . Output its TGI only. > 100 µM

// Input: `CC1(C)[C@@H]2CC[C@@]1(C)[C@H](O)[C@@H]2SCc1ccccc1` . Output its TGI only. 49.1 µM

// Input: COc1ccc(C2NCCc3c2[nH]c2ccccc32)cc1 (configuration not stated) . Output its TGI only. > 100 µM

// Input: COC(=O)C1(F)C(=O)NC(=O)NC1OC (configuration not stated) . Output its TGI only. > 100 µM

// Input: `CCOC(=O)c1nc2ccccc2nc1NCc1ccc(Cl)cc1Cl` . Output its TGI only. > 100 µM

// Input: `COc1cc2nnn3c4ncccc4c(N=O)c3c2cc1OC` . Output its TGI only. 40.1 µM

// Input: `O=C(CCN1CCCC1)Nc1ccc2c(Nc3ccccc3)c3ccccc3nc2c1` . Output its TGI only. 2.33 µM

// Input: `Cn1cnc([N+](=O)[O-])c1Sc1nc(N)nc2nc[nH]c12` . Output its TGI only. > 100 µM

// Input: `[N-]=[N+]=C(C(=O)C(=[N+]=[N-])C(=O)c1ccccc1)C(=O)c1ccccc1` . Output its TGI only. > 100 µM

// Input: `O=c1[nH]c2cc(Cl)c(Cl)cc2n2cc3ccccc3c12` . Output its TGI only. 53.3 µM

// Input: `O=C1OI(C#Cc2ccccc2)c2ccccc21` . Output its TGI only. 10.3 µM

// Input: CCN(CC)CCOc1ccc(/C=C2\CC3C4CC=C5C[C@@H](OC(C)=O)CC[C@]5(C)C4CC[C@]3(C)C2=O)cc1OC (some centres not stated) . Output its TGI only. 58.1 µM

// Input: CC1(C)OC(COCCOCCCCCO)C(COCCOCCCCCO)O1 (configuration not stated) . Output its TGI only. > 100 µM

// Input: `CN(C)C(=O)SC1=C(c2c(Cl)cccc2Cl)C(=O)c2ccccc21` . Output its TGI only. 23.9 µM

// Input: O=C(O)C1C2C=CC(O2)C1C(=O)Nc1ncccn1 (configuration not stated) . Output its TGI only. > 100 µM

// Input: `Cc1nnc(N=Nc2c(O)[nH]c3ccccc23)n1N` . Output its TGI only. > 100 µM

// Input: `O=P(O)(O)CN1CCNCCN(CP(=O)(O)O)CCNCC1` . Output its TGI only. > 100 µM

// Input: `O=CNNC(=O)Nc1ccc(Cl)cc1` . Output its TGI only. > 100 µM

// Input: `CC(=O)O[C@H]1C(=O)N(c2cc3c4ccccc4ccc3c3ccccc23)[C@@H]1c1ccccc1` . Output its TGI only. 7.2 µM

// Input: `Cc1cc2occ(-c3ccc(Cl)cc3)c2c(=O)o1` . Output its TGI only. > 100 µM

// Input: COc1ccc2cc(-c3c(-c4ccncc4)nc(-c4ccc(S(C)=O)cc4C)n3C)ccc2c1 (configuration not stated) . Output its TGI only. > 25 µM

// Input: CC(c1ccccc1)N1CC(C)(c2ccccc2)N(O)C(c2ccccc2)C1C (configuration not stated) . Output its TGI only. 55.2 µM

// Input: `O=c1c2c(nc3n1CCC3)sc1c(O)c(Br)ccc12` . Output its TGI only. > 100 µM

// Input: `CC(C)(C)c1c(C(C)(C)C)c(=O)c1=O` . Output its TGI only. > 100 µM

// Input: Cc1ccc2c(c1)CC1(C2=O)[C@H](c2ccccc2)C2C(=O)c3ccc(C)cc3C2[C@H]1c1ccccc1 (some centres not stated) . Output its TGI only. > 100 µM

// Input: CC(C)CCCC(C)[C@H]1CC[C@H]2N=C(Nc3ccccc3)CCC[C@]12C (some centres not stated) . Output its TGI only. 3.99 µM

// Input: CC(=O)OCCC(O[Si](c1ccccc1)(c1ccccc1)C(C)(C)C)C(C)(C)O (configuration not stated) . Output its TGI only. > 100 µM

// Input: `O=C(OCc1ccccc1C1CSCSC1)c1cc(C(=O)OCc2ccccc2C2CSCSC2)c(C(=O)OCc2ccccc2C2CSCSC2)cc1C(=O)OCc1ccccc1C1CSCSC1` . Output its TGI only. > 100 µM

// Input: `O=C(Nc1ccc(Cl)cc1)Nc1ccccc1CNc1nc(Nc2ccc(OCCN3CCCC3)cc2)ncc1Cl` . Output its TGI only. 9.28 µM

// Input: `NC(=O)C(=O)n1ncc(Cl)c(Cl)c1=O` . Output its TGI only. > 69.7 µM

// Input: C/C(=N\Nc1ccccc1)C(CN(C)C)C(c1ccccc1)c1c(O)c2ccccc2oc1=O (configuration not stated) . Output its TGI only. > 100 µM

// Input: `COc1ccccc1/C=C\C(=O)c1ccccc1` . Output its TGI only. 27 µM
